The reader will find reported EC50 values listed item by item below.
# Study target: RORγ-LBD (Homo sapiens, UniProt P51449)
# Construct: made in house; host or cells: SF9 cells (baculovirus); used as diluted lysate
# Sequence (P51449 269-508 limits assumed): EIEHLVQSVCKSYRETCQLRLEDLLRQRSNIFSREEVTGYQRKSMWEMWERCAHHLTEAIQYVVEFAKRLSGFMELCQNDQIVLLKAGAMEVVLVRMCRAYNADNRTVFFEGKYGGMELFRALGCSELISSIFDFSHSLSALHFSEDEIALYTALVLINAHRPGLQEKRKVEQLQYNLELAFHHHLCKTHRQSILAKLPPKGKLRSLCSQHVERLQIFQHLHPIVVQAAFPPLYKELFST
# Test method notes: RORγ-Ligand Binding Domain (LBD) TR-FRET Assay
# Assay type: biochemical
# Experimental conditions: with 2 μM ursolic acid (RORγ antagonist); highest test concentration 10 μM
# Experimental: Assay procedures and results are described below. HIS-tagged RORγ-LBD protein was expressed in SF9 cells using a baculovirus expression system. The lysate was diluted in assay buffer (50 mM Tris pH 7.0, 50 mM KCl, 1 mM EDTA, 0.1 mM DTT, 0.01% BSA) to obtain RORγ-LBD final concentration of ˜3 nM in a 384-well assay plate (need to titrate for each batch of protein). […]

Compound: CCOC(=O)C1Cc2ccc(OCc3c(F)cccc3Cl)cc2N(S(=O)(=O)c2cn(CC)nc2Cl)C1 (stereo not shown) [drawing 1599]
Observed property: EC50
Obs value: < 500 nM
--
Compound: O=C(O)CCC[C@H]1CN(S(=O)(=O)c2cc(C(F)(F)F)cnc2OCCO)c2cc(/C=C/c3c(F)cccc3Cl)ccc2O1 [Example 195B]
Observed property: EC50
Obs value: < 500 nM

Reported EC50 for CC(=O)NC[C@H]1CN(S(=O)(=O)c2cccc(C(F)(F)F)c2)c2cc(NCc3c(F)cccc3Cl)ccc2O1 : what is it? < 500 nM

Reported EC50 for Cc1ccc(COc2ccc3c(c2)N(S(=O)(=O)c2cccc(C(F)(F)F)c2)CC(C(=O)O)C3)cc1F (stereo not shown) : what is it? > 10000 nM

Reported EC50 for CCn1cc(S(=O)(=O)N2CC(C(=O)O)Cc3ccc(/C=C(\C)c4c(F)cccc4Cl)cc32)c(Cl)n1 (stereo not shown) : what is it? < 500 nM

Reported EC50 for C/C(=C\c1ccc2c(c1)N(S(=O)(=O)c1cccc(C(F)(F)F)c1)CC(C(=O)O)C2)c1c(F)cccc1Cl (stereo not shown) : what is it? < 500 nM

Reported EC50 for C/C(=C\c1ccc2c(c1)N(S(=O)(=O)c1cccc(C(F)(F)F)c1)C[C@H](CCCC(=O)O)O2)c1c(F)cccc1Cl [Example 195G] : what is it? < 500 nM

Values compiled from patent US9896441B2.
